Test system: MCT1 expressing WiDr cells
Assay: Seahorse XFe96 mitochondrial stress test (OCR), WiDr
Assay type: cell-based
Conditions: 30 μM

{"columns": ["compound", "targetOrSystem", "spare respiratory capacity (MST, OCR)"],
 "data": [
  ["N#CC(=Cc1ccc(O)cc1)C(=O)O [CHC, α-cyano-4-hydroxy cinnamic acid, reference compound]", "MCT1 expressing WiDr cells", "did not affect"],
  ["Cc1[nH]nc(C(F)(F)F)c1Cc1sc2c(c1C(=O)N1C[C@](C)(O)CO1)c(=O)n(C)c(=O)n2C(C)C [AZD3965, reference compound]", "MCT1 expressing WiDr cells", "did not affect"]
]}

---

System: MCT1 expressing WiDr cells
Experiment: Seahorse XFe96 mitochondrial stress test (OCR), WiDr
Format: cell-based
Conditions: 30 μM

{"columns": ["molecule", "maximal respiration (MST, OCR)"],
 "data": [
  ["Cc1[nH]nc(C(F)(F)F)c1Cc1sc2c(c1C(=O)N1C[C@](C)(O)CO1)c(=O)n(C)c(=O)n2C(C)C [AZD3965, reference compound]", "did not affect"],
  ["N#CC(=Cc1ccc(O)cc1)C(=O)O [CHC, α-cyano-4-hydroxy cinnamic acid, reference compound]", "did not affect"]
]}

---

Molecular target: MCT4 (Homo sapiens)
Construct: These cells predominantly express MCT4 as confirmed by Western blot and quantitative PCR analysis; host or cells: MDA-MB-231
Sequence (O15427 2-465 limits assumed): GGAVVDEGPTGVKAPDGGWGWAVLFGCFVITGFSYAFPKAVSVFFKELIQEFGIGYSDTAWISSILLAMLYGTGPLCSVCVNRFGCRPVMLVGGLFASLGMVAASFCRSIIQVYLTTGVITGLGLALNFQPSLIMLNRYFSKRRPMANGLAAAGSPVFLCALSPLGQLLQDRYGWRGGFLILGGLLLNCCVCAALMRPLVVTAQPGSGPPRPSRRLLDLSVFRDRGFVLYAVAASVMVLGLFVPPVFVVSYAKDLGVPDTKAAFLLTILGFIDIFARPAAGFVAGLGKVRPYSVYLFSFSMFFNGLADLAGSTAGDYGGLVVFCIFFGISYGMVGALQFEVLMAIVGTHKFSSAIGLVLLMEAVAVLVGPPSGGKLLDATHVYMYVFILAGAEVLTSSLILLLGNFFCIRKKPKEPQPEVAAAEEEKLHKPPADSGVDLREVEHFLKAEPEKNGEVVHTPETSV
Sequence (P35613 140-385 partner limits assumed): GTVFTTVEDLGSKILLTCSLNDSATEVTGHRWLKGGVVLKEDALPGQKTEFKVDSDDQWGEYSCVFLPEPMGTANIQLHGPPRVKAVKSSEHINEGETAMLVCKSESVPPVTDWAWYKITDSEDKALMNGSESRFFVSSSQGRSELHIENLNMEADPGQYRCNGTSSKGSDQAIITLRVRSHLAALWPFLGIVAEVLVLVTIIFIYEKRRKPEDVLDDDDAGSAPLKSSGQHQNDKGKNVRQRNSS
Assay: L-[14C]-lactate uptake study in MCT4 expressing MDA-MB-231 cells
Assay type: cell-based
Conditions: Figure 1A and text, lactate uptake, read-out: MCT4 IC50
Answer each item with its documented pIC50.
Friendly reminder that pIC50 comes from taking -log10 of the concentration in mol/L.

// field: pIC50; key: COc1cc(N(c2ccccc2)c2ccccc2)ccc1/C=C(\C#N)C(=O)O ; value = 7.64

Looking up C=CCN(CC=C)c1ccc(/C=C(\C#N)C(=O)O)c(OC)c1 , I found its pIC50 recorded as 7.55

---

Provide the reported IC50 of each item.
Target: MCT4 (Homo sapiens, UniProt O15427)
Construct: These cells predominantly express MCT4 as confirmed by Western blot and quantitative PCR analysis; host or cells: MDA-MB-231
Assay: L-[14C]-lactate uptake study in MCT4 expressing MDA-MB-231 cells
Assay type: cell-based
Settings: Supplementary Table 1, average ± SEM, read-out: MCT4 IC50
Give your result in nM as a bare value.

Form field IC50, entry COc1cc(N(CC(C)C)CC(C)C)ccc1/C=C(\C#N)C(=O)O : 17

Field IC50 (entry COc1cc(N(c2ccccc2)c2ccccc2)ccc1/C=C(\C#N)C(=O)O ) reads 18

Looking up C=CCN(CC=C)c1ccc(/C=C(\C#N)C(=O)O)c(OC)c1 , I see its IC50 listed as 24

Value of IC50 reported for the compound CCCCCN(CCCCC)c1ccc(/C=C(\C#N)C(=O)O)c(OC)c1 is 85

Looking up CCCN(CCC)c1ccc(/C=C(\C#N)C(=O)O)c(OC)c1 , I see its IC50 listed as 11

Lab book: IC50 of COc1cc(N2CCCCC2)ccc1/C=C(\C#N)C(=O)O noted as 58

Value of IC50 reported for the compound COc1cc(N(Cc2ccccc2)Cc2ccccc2)ccc1/C=C(\C#N)C(=O)O is 32

The value of IC50 measured for the compound CCCCN(CCCC)c1ccc(/C=C(\C#N)C(=O)O)c(OC)c1 turned out to be 14
